Assay: CCTE_Deisenroth_AIME_384WELL_CTox_Active: Cytotoxicity Assessment (CTOX) in CCTE's 384-well Estrogen Receptor Transactivation Assay with AIME metabolic competence (metabolism positive), Deisenroth Lab (AID 2284037);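 note: chemicals first conditioned 2 h by alginate-bound induced rat liver S9 before cells; activity means signal loss indicating cell death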
Inconclusive results are not listed. Activity calls are given as the source filed them. Rule for the calls: active = hit-call score of the fitted dose curve at least 0.9, where 1 is the maximum; inconclusive = response in the unintended direction; inactive = score below 0.9.
Respond using exactly one of the listed classes: active, inactive

Completed entries (count: 5):
> print(dat)
                                   compound     class
1  Cc1cc(Cc2cc(C)cc(C(C)(C)C)c2O)c(O)c(C(C)(C)C)c1    active
2      CCCCC(CC)C(=O)O (stereo unspecified)  inactive
3                           OCC(CO)(CBr)CBr  inactive
4                    c1cnc2c(c1)ccc1cccnc12    active
5       CCCCCCCCCCCCOC(=O)c1cc(O)c(O)c(O)c1  inactive

QUERY: How did this test come out for CCC(C)c1ccccc1O (stereo unspecified) ?
RESULT: inactive
